tested on: E. coli UTI89 K1F phage lysis inhibition, OD600; experiment: inhibition of K1F phage lysis of E. coli UTI89, confirmation, bacterial capsule biogenesis inhibitors, C7 control, OD600 (AID 504358)
pIC50: −log10 of the molar value.
I would appreciate it if you labelled entries Y when pIC50 is 5 or higher, otherwise N.

Could you verify whether the entry "CC1=NN2C(=N)/C(=C\c3ccc(SCc4ccco4)o3)C(=O)N=C2S1" shows pIC50 of no less than 5? N

Could you verify whether the entry "O=C(Nc1ccncc1)c1ccc2ncsc2c1" shows pIC50 of no less than 5? Y

Could you verify whether the entry CC1(C(=O)O)CCC(C(=O)Nc2ccc3ccccc3c2)C1(C)C (configuration not stated) shows pIC50 of no less than 5? N

Could you verify whether the entry "O=C(ONc1ccc(N=NC(=O)c2ccccc2O)cc1)c1ccccc1" shows pIC50 of no less than 5? Y

Could you verify whether the entry "CCOc1ccc(-c2cc(NC(=O)c3c(F)cccc3F)c(C(=O)O)s2)cc1" shows pIC50 of no less than 5? Y

Could you verify whether the entry "O=C(NCc1cc([N+](=O)[O-])ccc1O)c1cccnc1Sc1ccccc1Cl" shows pIC50 of no less than 5? N
